Data origin: ChEMBL document CHEMBL1671798

Target: Transthyretin (Homo sapiens)
Test: Displacement of S-phenyl 3-(4-hydroxy-3,5-dimethylstyryl)benzothioate from human TTR assessed as fluorescence at 37 degC after 3 hrs
Design: concentration or dose not given beside the values
MEASURED QUANTITY: Activity (%)
Quick reminder: number only, in %, skip the unit.

Cc1cc(Oc2ccccc2)cc(C)c1O: 81

Incoming: Supply Activity value. Item: `O=C(O)c1cccc(C(=O)Nc2cc(Br)c(O)c(Br)c2)c1`
Outgoing: 85

Incoming: Supply recorded Activity for CC(C(=O)O)c1ccc(-c2ccccc2)c(F)c1 (configuration not stated) here.
Outgoing: 96

Incoming: Please give the documented Activity of `O=C(O)c1ccccc1Nc1cccc(C(F)(F)F)c1`
Outgoing: 97

Incoming: Specify Activity for `O=C(Nc1cc(Br)c(O)c(Br)c1)c1ccccc1O` and stop.
Outgoing: 29

Incoming: Write down Activity measured for item `O=C(Nc1ccccc1)c1cc(Br)c(O)c(Br)c1`
Outgoing: 61

Incoming: Indicate its recorded Activity; the compound in question is `Oc1c(Br)cc(CCc2cccc(C(F)(F)F)c2)cc1Br`
Outgoing: 3

---

Biological target: UniProt:P02766
Experiment: Inhibition of wild type-TTR expressed in Escherichia coli assessed as amyloid fibril formation at pH 4.4 at 7. 2 uM after 72 hrs by acid-mediated aggregation assay relative to control
Parameters: scale not given: the % may be the effect or the level left
MEASURED QUANTITY: Activity (%)
Provide the reading as a plain figure in %.

COc1c(Br)cc(C(=O)Nc2cc(Br)c(O)c(Br)c2)cc1Br: 10
O=C(Nc1cc(Br)c(O)c(Br)c1)c1cccc(O)c1: 9
Cc1ccc(Cl)c(Nc2ccccc2C(=O)O)c1Cl: 3
O=C(O)Cc1ccccc1Nc1c(Cl)cccc1Cl: 17

Incoming: Fill: Activity (UniProt:P02766) for this molecule `O=C(Nc1ccccc1)Nc1cc(Br)c(O)c(Br)c1`
Outgoing: 9

Incoming: # return Activity for `O=C(O)c1cc(-c2ccc(F)cc2F)ccc1O` , test system: UniProt:P02766
Outgoing: 2

Incoming: Supply Activity measured with UniProt:P02766 for `O=C(Nc1cc(Br)c(O)c(Br)c1)c1cc(F)cc(F)c1` .
Outgoing: 10

Incoming: Give UniProt:P02766 Activity for the following molecule: `O=C(Nc1cc(Br)c(O)c(Br)c1)c1cccc(Cl)c1`
Outgoing: 8

Incoming: # return Activity for `Oc1c(Br)cc(CCc2cccc(C(F)(F)F)c2)cc1Br` , test system: UniProt:P02766
Outgoing: 1
